Overview of recorded inhibition for various compounds
# Measured on: Macrophage-stimulating protein receptor (Homo sapiens)
# Measurement context: at 0.1 µM
Enter your answer as a number in %; do not include the unit.

COc1cccc(-n2ncc3c(N/N=C/c4ccc(S(C)(=O)=O)cc4)ncnc32)c1; 29.4
COc1cc2ncn(-c3cc(OCc4ccccc4S(C)(=O)=O)c(C#N)s3)c2cc1OC; -3.29
O=C1Nc2ccc(-c3cccnc3)cc2C1=Cc1cc(Br)c(O)c(Br)c1; -1.31
O=C1Nc2ccccc2/C1=C/Nc1ccc2[nH]c(=O)[nH]c2c1; 5.9
COc1cc(/C=N/Nc2ncnc3c2cnn3C(C)C)ccc1O; 8.98

I'd like to know its inhibition. The compound in question is "O=S(=O)(CCOCc1ccc(-c2ccc3ncnc(Nc4ccc(OCc5cccc(F)c5)c(Cl)c4)c3c2)o1)c1ccccc1"
3.62

I'd like to know its inhibition. The compound in question is "c1ccc(Cc2nc3ccc(Nc4ncnc5ccccc45)cc3[nH]2)cc1"
4.08

I'd like to know its inhibition. The compound in question is "CCOc1nccc2c1nc(-c1nonc1N)n2CC"
10

I'd like to know its inhibition. The compound in question is "Cc1cc(O)cc(C)c1/C=C/c1cncc(C(=O)N(C)C)c1"
4.1

I'd like to know its inhibition. The compound in question is "Cc1ccc(Nc2ccnc(Nc3cccc(C(N)=O)c3)n2)cc1O"
0.19

* * *

# System: Epidermal growth factor receptor (Homo sapiens), P00533 [T790M]
# Sequence (P00533 whole entry T790M): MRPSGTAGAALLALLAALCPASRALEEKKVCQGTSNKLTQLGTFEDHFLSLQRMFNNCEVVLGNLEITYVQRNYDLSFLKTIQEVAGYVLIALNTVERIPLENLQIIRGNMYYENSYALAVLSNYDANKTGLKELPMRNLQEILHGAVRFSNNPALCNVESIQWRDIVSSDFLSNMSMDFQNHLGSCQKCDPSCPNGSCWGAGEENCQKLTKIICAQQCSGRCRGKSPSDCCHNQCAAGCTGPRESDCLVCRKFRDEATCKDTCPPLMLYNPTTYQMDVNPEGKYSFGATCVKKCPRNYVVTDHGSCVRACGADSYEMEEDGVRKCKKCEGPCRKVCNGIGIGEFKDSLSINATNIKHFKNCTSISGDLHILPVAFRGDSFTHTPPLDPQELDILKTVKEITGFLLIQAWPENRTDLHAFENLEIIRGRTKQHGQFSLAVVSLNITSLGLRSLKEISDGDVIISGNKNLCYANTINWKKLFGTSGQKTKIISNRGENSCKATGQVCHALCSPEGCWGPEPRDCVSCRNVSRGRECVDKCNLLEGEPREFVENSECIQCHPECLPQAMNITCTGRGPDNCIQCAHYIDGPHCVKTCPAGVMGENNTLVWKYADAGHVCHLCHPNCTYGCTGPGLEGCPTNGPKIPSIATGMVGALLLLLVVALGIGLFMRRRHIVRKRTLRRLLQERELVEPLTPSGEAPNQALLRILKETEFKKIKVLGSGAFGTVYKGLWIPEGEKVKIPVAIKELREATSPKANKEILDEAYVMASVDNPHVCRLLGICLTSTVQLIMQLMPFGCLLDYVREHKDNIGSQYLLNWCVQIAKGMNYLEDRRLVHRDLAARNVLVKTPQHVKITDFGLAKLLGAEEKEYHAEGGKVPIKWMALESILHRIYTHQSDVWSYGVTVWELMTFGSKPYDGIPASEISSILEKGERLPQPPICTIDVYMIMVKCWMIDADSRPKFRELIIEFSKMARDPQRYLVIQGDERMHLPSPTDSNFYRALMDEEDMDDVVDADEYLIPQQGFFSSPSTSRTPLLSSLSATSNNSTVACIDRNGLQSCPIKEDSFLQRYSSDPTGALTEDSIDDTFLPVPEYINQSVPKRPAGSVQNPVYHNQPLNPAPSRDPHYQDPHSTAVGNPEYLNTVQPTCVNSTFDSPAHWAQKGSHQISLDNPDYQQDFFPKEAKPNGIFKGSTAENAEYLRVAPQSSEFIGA
# Measurement context: at 0.1 µM
Quantity name: inhibition (%)
Enter your answer as a number in %; do not include the unit.

I'd like to know its inhibition. The molecule in question is "O=C1Nc2ccc(-c3cccnc3)cc2C1=Cc1cc(Br)c(O)c(Br)c1"
2.3

I'd like to know its inhibition. The molecule in question is "CN1CCN(C(=O)c2ccc(NC(=O)Nc3ccc(N(C)c4ccnc(Nc5ccc(CS(C)(=O)=O)cc5)n4)cc3)cc2)CC1"
-0.46

I'd like to know its inhibition. The molecule in question is "CS(=O)(=O)CCNCc1nc(-c2ccc3ncnc(Nc4ccc(OCc5cccc(C(F)(F)F)c5)cc4)c3c2)cs1"
-1.75

* * *

# Measured on: Muscle, skeletal receptor tyrosine-protein kinase (Homo sapiens)
# Sequence (whole entry): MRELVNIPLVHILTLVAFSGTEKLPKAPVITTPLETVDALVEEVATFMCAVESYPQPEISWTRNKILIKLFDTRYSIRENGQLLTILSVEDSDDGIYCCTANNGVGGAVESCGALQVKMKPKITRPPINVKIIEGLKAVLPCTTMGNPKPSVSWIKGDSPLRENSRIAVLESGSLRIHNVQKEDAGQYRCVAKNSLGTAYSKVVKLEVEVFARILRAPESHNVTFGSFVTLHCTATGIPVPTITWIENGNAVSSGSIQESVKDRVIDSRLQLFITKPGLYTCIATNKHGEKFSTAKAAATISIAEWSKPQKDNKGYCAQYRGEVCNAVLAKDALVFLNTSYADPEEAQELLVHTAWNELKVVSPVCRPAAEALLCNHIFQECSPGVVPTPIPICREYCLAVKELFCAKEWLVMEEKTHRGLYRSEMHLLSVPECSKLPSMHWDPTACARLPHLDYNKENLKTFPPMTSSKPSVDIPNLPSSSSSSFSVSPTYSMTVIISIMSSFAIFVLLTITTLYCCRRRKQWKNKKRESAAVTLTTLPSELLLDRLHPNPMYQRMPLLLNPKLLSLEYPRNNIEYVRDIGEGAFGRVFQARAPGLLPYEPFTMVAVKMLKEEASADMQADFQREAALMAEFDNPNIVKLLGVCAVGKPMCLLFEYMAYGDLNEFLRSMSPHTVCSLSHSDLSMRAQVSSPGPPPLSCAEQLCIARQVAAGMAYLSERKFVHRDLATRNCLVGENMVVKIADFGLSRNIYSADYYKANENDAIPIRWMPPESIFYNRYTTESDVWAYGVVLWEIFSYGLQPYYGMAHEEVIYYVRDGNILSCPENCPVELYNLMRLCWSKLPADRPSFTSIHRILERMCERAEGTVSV
# Measurement context: at 0.1 µM
Classify as follows. Reported inhibition greater than or equal to 4%: Met. Reported inhibition below: Not met.

Here are 4 compounds together with their reported answers.
NS(=O)(=O)c1ccc(N/N=C2\C(=O)Nc3ccc(Cl)cc32)cc1; Met
Nc1nccc(-c2c(-c3ccc(F)cc3)ncn2CCCN2CCOCC2)n1; Not met
COc1cccc(-n2ncc3c(N/N=C/c4ccc(C)cc4)ncnc32)c1; Met
COc1cc2ncnc(Nc3ccc4c(cnn4Cc4ccccc4)c3)c2cc1OC; Not met

Here is the next item to consider.
Quick check, inhibition >= 4%? "COc1cc(/C=N/Nc2ncnc3c2cnn3C(C)C)ccc1O"
Met

* * *

Overview of recorded inhibition for various compounds
# Measured on: Ephrin type-B receptor 2 (Homo sapiens)
# Measurement context: at 1 µM
# Description: GSK_PKIS: EPHB2 mean inhibition at 1 uM [Nanosyn]
Enter your answer as a number in %; do not include the unit.

Below: 4 compounds and their reported inhibition.
CCOc1nccc2c1nc(-c1nonc1N)n2CC; 13.1
Cc1cc(Cl)cc2c1NC(=O)C2=NNc1ccc(S(N)(=O)=O)cc1; 1.31
N#Cc1c(NC(=O)c2ccccc2F)sc2c1CCCC2; -0.34
COc1cccc(-n2ncc3c(N/N=C/c4ccc(C)cc4)ncnc32)c1; 9.45

I'd like to know its inhibition. The compound in question is "Nc1nccc(-c2c(-c3ccc(F)cc3)ncn2CCCN2CCOCC2)n1"
7.41

I'd like to know its inhibition. The compound in question is "NS(=O)(=O)c1ccc(-c2cc3ccncc3cc2OCc2ccccc2)cc1"
12.6

I'd like to know its inhibition. The compound in question is "N#Cc1cccc(Nc2nccc(-c3cnn4ncccc34)n2)c1"
46.2

I'd like to know its inhibition. The compound in question is "CN(C)c1cc2c(Nc3ccc4c(cnn4Cc4ccccc4)c3)ncnc2cn1"
0.46

I'd like to know its inhibition. The compound in question is "Nc1nccc(-c2c(-c3ccc(F)cc3)nn3cc(C(F)(F)F)ccc23)n1"
5.83

I'd like to know its inhibition. The compound in question is "COC(=O)c1cncc(/C=C/c2c(C)cc(O)cc2C)c1"
56.4

I'd like to know its inhibition. The compound in question is "c1ccc(Cc2nc3ccc(Nc4ncnc5ccccc45)cc3[nH]2)cc1"
12.8

I'd like to know its inhibition. The compound in question is "NS(=O)(=O)c1ccc(N/N=C2\C(=O)Nc3ccc(Cl)cc32)cc1"
6.46

I'd like to know its inhibition. The compound in question is "COc1cccc(-n2ncc3c(N/N=C/c4ccc(S(C)(=O)=O)cc4)ncnc32)c1"
11.5

* * *

# Measured on: Serine/threonine-protein kinase DCLK2 (Homo sapiens)
# Measurement context: at 1 µM
Quantity name: inhibition

Below: 3 compounds and their reported inhibition.
CCn1c(-c2nonc2N)nc2c(C#CC(C)(C)O)nc(OCCNC)cc21; -0.85%
O=C1Nc2ccccc2/C1=C/Nc1ccc2[nH]c(=O)[nH]c2c1; -0.33%
[O-][S+]1CCN(Cc2ccc(-c3ccc4ncnc(Nc5ccc(OCc6ccccc6)c(Cl)c5)c4c3)o2)CC1; 1.8%

Kindly state the measured inhibition obtained for "NS(=O)(=O)c1ccc(-c2cc3ccncc3cc2OCc2ccccc2)cc1" with Serine/threonine-protein kinase DCLK2 (Homo sapiens).
3.41%

Kindly state the measured inhibition obtained for "N#Cc1cccc(Nc2nccc(-c3cnn4ncccc34)n2)c1" with Serine/threonine-protein kinase DCLK2 (Homo sapiens).
0.56%

Kindly state the measured inhibition obtained for "C[C@@H](Oc1cc(-n2cnc3ccc(OC[C@@H](O)CO)cc32)sc1C(N)=O)c1ccccc1Cl" with Serine/threonine-protein kinase DCLK2 (Homo sapiens).
-6.84%

* * *

# Measured on: Fibroblast growth factor receptor 1 (Homo sapiens) (UniProt P11362)
# Sequence (P11362 22-822 limits assumed): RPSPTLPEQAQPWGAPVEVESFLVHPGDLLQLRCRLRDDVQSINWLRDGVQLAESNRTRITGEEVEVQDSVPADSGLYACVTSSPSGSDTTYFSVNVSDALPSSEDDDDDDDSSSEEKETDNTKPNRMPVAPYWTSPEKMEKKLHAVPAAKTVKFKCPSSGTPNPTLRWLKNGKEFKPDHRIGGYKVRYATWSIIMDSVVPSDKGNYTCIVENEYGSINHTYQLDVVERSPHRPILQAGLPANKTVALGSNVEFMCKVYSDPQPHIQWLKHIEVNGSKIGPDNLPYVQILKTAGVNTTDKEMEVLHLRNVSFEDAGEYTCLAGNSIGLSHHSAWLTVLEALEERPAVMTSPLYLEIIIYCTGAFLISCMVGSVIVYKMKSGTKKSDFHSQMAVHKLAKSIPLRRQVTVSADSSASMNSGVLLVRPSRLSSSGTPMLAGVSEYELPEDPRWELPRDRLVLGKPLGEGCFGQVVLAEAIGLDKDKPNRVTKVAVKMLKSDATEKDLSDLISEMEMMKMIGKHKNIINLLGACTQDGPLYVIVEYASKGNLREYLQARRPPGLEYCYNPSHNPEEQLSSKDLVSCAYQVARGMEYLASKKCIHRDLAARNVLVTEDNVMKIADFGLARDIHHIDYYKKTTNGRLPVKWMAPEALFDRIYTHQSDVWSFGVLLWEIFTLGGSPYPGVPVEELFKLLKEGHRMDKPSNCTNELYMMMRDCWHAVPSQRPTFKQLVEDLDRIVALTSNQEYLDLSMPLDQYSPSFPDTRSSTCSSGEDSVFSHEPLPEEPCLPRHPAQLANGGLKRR
# Measurement context: at 1 µM
Quantity name: inhibition (%)
Enter your answer as a number in %; do not include the unit.

O=C(Nc1ccc(Oc2ccc3[nH]c(NC(=O)c4ccco4)nc3c2)cc1)Nc1cc(C(F)(F)F)ccc1F; 9.84
NS(=O)(=O)c1ccc(Nc2cc(-c3cccc(O)c3)n[nH]2)cc1; 14.2
N#Cc1c(NC(=O)c2ccccc2F)sc2c1CCCC2; -0.77
CCn1c(-c2nonc2N)nc2ccc(F)cc21; 10.2
CS(=O)(=O)CCNCc1nc(-c2ccc3ncnc(Nc4ccc(OCc5cccc(C(F)(F)F)c5)cc4)c3c2)cs1; 4.98
NS(=O)(=O)c1cccc(Nc2cc(-c3ccc(F)cc3)n[nH]2)c1; 3.62

I'd like to know its inhibition. The molecule in question is "COC(=O)Nc1nc2cc(Oc3ccc(NC(=O)Nc4cccc(Br)c4)cc3)ccc2[nH]1"
0.5

I'd like to know its inhibition. The molecule in question is "CN(C)c1cc2c(Nc3ccc4c(cnn4Cc4ccccc4)c3)ncnc2cn1"
4.22

I'd like to know its inhibition. The molecule in question is "C[C@@H](Oc1cc(-n2cnc3ccc(OC[C@@H](O)CO)cc32)sc1C(N)=O)c1ccccc1Cl"
0.72

I'd like to know its inhibition. The molecule in question is "N#Cc1cccc(Nc2nccc(-c3cnn4ncccc34)n2)c1"
8.94
